Collected optical density values appear next to each entry.
ASSAY SYSTEM: T1, biotinylated goat anti-human kappa light chain
T1 construct: positive control of the ELISA
MEASUREMENT DESCRIPTION: ELISA, positive control; note: test concentration or dose not given here
PROPERTY MEASURED: optical density (OD)

[
  {
    "BINDER": "372_B11 (antibody, V domains shown, Group I) VH: EVQLLESGGGLVQPGGSLRLSCAASGFTFSSYSMHWVRQAPGKGLEWVAGINYNSGYTSYADSVKGRFTISRDNSKNTLYLQMNSLRAEDTAVYYCARAANWHDTHLDYWGQGTLVTVSS VL: DIQMTQSPSSLSASVGDRVTITCRASQSILTYVNWYQQKPGKAPKLVIYAATSLASGVPSRFSGSGSGTDFTLTISSLQPEDFATYYCQQSYDTPLTFGGGTKVEIK",
    "PROPERTY MEASURED": "optical density",
    "READOUT NUMBER": 3.73
  },
  {
    "BINDER": "368_B03 (antibody, V domains shown, Group I) VH: EVQLLESGGGLVQPGGSLRLSCAASGFTFDDYGMNWVRQAPGKGLEWVSGINYNGGYTSYADSVKGRFTISRDNSKNTLYLQMNSLRAEDTAVYYCARAANWHDTALDYWGQGTLVTVSS VL: DIQMTQSPSSLSASVGDRVTITCRASQSILTYLNWYQQKPGKAPKLVIYAATSLASGVPSRFSGSGSGTDFTLTISSLQPEDFATYYCQHSYENPLTFGGGTKVEIK",
    "PROPERTY MEASURED": "optical density",
    "READOUT NUMBER": 3.38
  },
  {
    "BINDER": "374_A12 (antibody, V domains shown, Group II) VH: EVQLLESGGGLVQPGGSLRLSCAASGFTFDSYGMHWVRQAPGKGLEWVSSINYNGGYTSYADSVKGRFTISRDNSKNTLYLQMNSLRAEDTAVYYCARAATWHDTHLDYWGQGTLVTVSS VL: DIQMTQSPSSLSASVGDRVTITCRASQSILTYLNWYQQKPGKAPKLLIYAATSRASGVPSRFSGSGSGTDFTLTISSLQPEDFATYYCQQSDSNPLTFGGGTKVEIK",
    "PROPERTY MEASURED": "optical density",
    "READOUT NUMBER": 3.06
  },
  {
    "BINDER": "368_F10 (antibody, V domains shown, Group I) VH: EVQLLESGGGLVQPGGSLRLSCAASGFTFSSYGMNWVRQAPGKGLEWVAGINYNSGYTSYADSVKGRFTISRDNSKNTLYLQMNSLRAEDTAVYYCARAANWHDTHLDYWGQGTLVTVSS VL: DIQMTQSPSSLSASVGDRVTITCRASQSIVSYVNWYQQKPGKAPKLLIYAATSRASGVPSRFSGSGSGTDFTLTISSLQPEDFATYYCQQSYDTPLTFGGGTKVEIK",
    "PROPERTY MEASURED": "optical density",
    "READOUT NUMBER": 3.52
  },
  {
    "BINDER": "368_B04 (antibody, V domains shown, Group II) VH: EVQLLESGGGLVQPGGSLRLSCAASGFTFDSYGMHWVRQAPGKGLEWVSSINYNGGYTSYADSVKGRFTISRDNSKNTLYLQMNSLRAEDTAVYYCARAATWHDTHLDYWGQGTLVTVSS VL: DIQMTQSPSSLSASVGDRVTITCRASQSIVSYLNWYQQKPGKAPKLVIYAATSRASGVPSRFSGSGSGTDFTLTISSLQPEDFATYYCQQSYENPLTFGGGTKVEIK",
    "PROPERTY MEASURED": "optical density",
    "READOUT NUMBER": 3.29
  },
  {
    "BINDER": "375_H01 (antibody, V domains shown, Group I) VH: EVQLLESGGGLVQPGGSLRLSCAASGFTFSDYSMNWVRQAPGKGLEWVAGINYNSGYTSYADSVKGRFTISRDNSKNTLYLQMNSLRAEDTAVYYCARAANWHDTHLDYWGQGTLVTVSS VL: DIQMTQSPSSLSASVGDRVTITCRASQSILTYLNWYQQKPGKAPKLLIYAATSRHSGVPSRFSGSGSGTDFTLTISSLQPEDFATYYCQQSYSNPLTFGGGTKVEIK",
    "PROPERTY MEASURED": "optical density",
    "READOUT NUMBER": 3.1
  },
  {
    "BINDER": "375_F12 (antibody, V domains shown, Group I) VH: EVQLLESGGGLVQPGGSLRLSCAASGFTFDSYGMHWVRQAPGKGLEWVASINYNGGYTSYADSVKGRFTISRDNSKNTLYLQMNSLRAEDTAVYYCARAANWHDTALDYWGQGTLVTVSS VL: DIQMTQSPSSLSASVGDRVTITCRASQSILTYLNWYQQKPGKAPKLVIYAATSRASGVPSRFSGSGSGTDFTLTISSLQPEDFATYYCQQSDELPLTFGGGTKVEIK",
    "PROPERTY MEASURED": "optical density",
    "READOUT NUMBER": 3.17
  },
  {
    "BINDER": "366_G12 (antibody, V domains shown, Group III) VH: EVQLLESGGGLVQPGGSLRLSCAASGFTFSSYGMHWVRQAPGKGLEWVSGINYNSGYKGYADSVKGRFTISRDNSKNTLYLQMNSLRAEDTAVYYCARGANWHDTHLDYWGQGTLVTVSS VL: DIQMTQSPSSLSASVGDRVTITCRASQSILSYLNWYQQKPGKAPKLLIYAATSRHSGVPSRFSGSGSGTDFTLTISSLQPEDFATYYCQQSYNTPLTFGGGTKVEIK",
    "PROPERTY MEASURED": "optical density",
    "READOUT NUMBER": 3.59
  },
  {
    "BINDER": "365_G09 (antibody, V domains shown, Group III) VH: EVQLLESGGGLVQPGGSLRLSCAASGFTFSSYSMNWVRQAPGKGLEWVSGINYNGGYKSYADSVKGRFTISRDNSKNTLYLQMNSLRAEDTAVYYCARGANWHDTHLDYWGQGTLVTVSS VL: DIQMTQSPSSLSASVGDRVTITCRASQSIITYLNWYQQKPGKAPKLVIYAATSRASGVPSRFSGSGSGTDFTLTISSLQPEDFATYYCQQSYNSPLTFGGGTKVEIK",
    "PROPERTY MEASURED": "optical density",
    "READOUT NUMBER": 3.67
  },
  {
    "BINDER": "370_B06 (antibody, V domains shown, Group II) VH: EVQLLESGGGLVQPGGSLRLSCAASGFTFSSYGMHWVRQAPGKGLEWVAGINYNGGYTSYADSVKGRFTISRDNSKNTLYLQMNSLRAEDTAVYYCARAATWHDTHLDYWGQGTLVTVSS VL: DIQMTQSPSSLSASVGDRVTITCRASQSIVSYVNWYQQKPGKAPKLVIYAATSRASGVPSRFSGSGSGTDFTLTISSLQPEDFATYYCQQSYETPLTFGGGTKVEIK",
    "PROPERTY MEASURED": "optical density",
    "READOUT NUMBER": 3.37
  }
]
